The reported measurements were obtained from PubChem BioAssay (EPA / NIEHS).

read-out: Forkhead box O1 (FOXO1), FOXO1 (gene 2308); assay: LTEA_HepaRG_FOXO1: Life Technologies and Expression Analysis (LTEA) Assay for Forkhead box O1 (FOXO1) using HepaRG (AID 2283456); conditions: mRNA level, 48 h; actives raise or lower the signal
Activity calls are given as the source filed them. How the source made its calls: active means hit-call score of the fitted dose curve at least 0.9, where 1 is the maximum; inactive means score below 0.9.
Possible outcomes: T (active), F (inactive)

molecule: N#Cc1nn(-c2c(Cl)cc(C(F)(F)F)cc2Cl)c(N)c1S(=O)C(F)(F)F (centres undefined)
class.name: T

molecule: CCCCNC(=O)OCC#CI
class.name: F

molecule: CCCC1COC(Cn2cncn2)(c2ccc(Cl)cc2Cl)O1 (centres undefined)
class.name: T

molecule: COC(=O)C(C)Oc1ccc(Oc2ccc(Cl)cc2Cl)cc1 (centres undefined)
class.name: T
